assay: GSK_TCAKS: pIC50 HepG2 human cell line viability assay using luminiscence. […] Seeding density was checked to ensure that new mono-layers were not more than 50% confluent at the time of harvesting. Cell suspension was added to 500 mL of the same medium at a final density of 1.2 * 10^5 cells/mL. This cell suspension was dispensed (25 uL, 3000 cells per well) into 384-well clear-bottom plates using a Multidrop Combi dispenser. Prior to addition of the cell suspension, the screening compounds (250 nL) were pre-dispensed into the plates with an Echo liquid handler. Plates were incubated for 48 h at 37C, 5% CO2. After incubation, plates equilibrated at room temperature for 30 min before proceeding to develop the luminescent signal. The signal developer, CellTiter-Glo Reagent, was allowed to equilibrate at room temperature for 30 min and added to the plates (25uL per well) using a Multidrop Combi dispenser. Plates were left for 10 min at room temperature for stabilization and then read using a ViewLux.; type: toxicity, cell-based
metric: IC50 at 48 h (µM)
Quick reminder: number only, in µM, skip the unit.

Would you please look over these solved cases?
Per the records, this molecule ( NS(=O)(=O)c1ccc(CNC(=O)c2ccc([N+](=O)[O-])s2)cc1 ) has IC50 at 48 h equal to 15.8

Per the records, this molecule ( COc1cc(NC(=O)Nc2cccc(CNC(=O)OC3CCCCC3)c2)ccc1-c1cnco1 ) has IC50 at 48 h equal to 39.8

Per the records, this molecule ( CS(=O)(=O)c1ccc(Nc2nccc(Nc3n[nH]c4ccc(F)cc34)n2)c(F)c1 ) has IC50 at 48 h equal to 79.4

Per the records, this molecule ( COc1ccc(OC)c(S(=O)(=O)N(Cc2c(F)cccc2F)[C@@H]2CCN(C#N)C2)c1 ) has IC50 at 48 h equal to 79.4

Per the records, this molecule ( COc1cnc2ccc(=O)n(CCN3CCC(NC(=O)Cc4ccc(Cl)c(Cl)c4)CC3)c2c1 ) has IC50 at 48 h equal to 63.1

Per the records, this molecule ( N#Cc1cc(-c2ccnc(Nc3cccc(CN4CCOCC4)c3)n2)ccc1NCCN ) has IC50 at 48 h equal to 50.1

Per the records, this molecule ( Clc1ccc(OCCN2CCCCC2c2cccnc2)c(Cl)c1 (stereo not drawn) ) has IC50 at 48 h equal to 79.4

Per the records, this molecule ( O=C(NC(CO)c1ccc(F)cc1)c1ccc(-c2c[nH]c3ncccc23)s1 (stereo not drawn) ) has IC50 at 48 h equal to 39.8

Per the records, this molecule ( O=C(c1cccc(Nc2ncc(-c3ccc4c(c3)OCO4)cn2)c1)N1CCSC1 ) has IC50 at 48 h equal to 10

Per the records, this molecule ( COc1ccc(NS(=O)(=O)c2cccc(NC(=O)c3cc(F)cc(F)c3)c2)cc1 ) has IC50 at 48 h equal to 31.6

More entries:
Per the records, this molecule ( CCOc1ccc(N(C)S(=O)(=O)c2ccc3[nH]cc(C(=O)NC4CCCC4)c(=O)c3c2)cc1 ) has IC50 at 48 h equal to 50.1

###

tested on: Trypanosoma brucei brucei; assay: GSK_TCAKS: pIC50 Trypanosoma brucei viability assay using luminiscence. Assay plates (1536-well) were prepared. T. brucei cultures were harvested and counted in a CASY cell counter. A parasite suspension was prepared at a final concentration of 5 * 10^4 cells/mL in complete HMI9 medium and 6uL was dispensed to all wells containing compounds using a Multidrop Combi dispenser. 6uL of HMI9 media with 0.4% DMSO were dispensed to control columns. Plates were incubated for 24 h at 37C, 5% CO2 then tempered for 10 min at room temperature. ATP content was quantified by adding 4 uL of CellTiter-Glo Reagent (Promega) according to the manufacturer's instructions. Luminescence was measured using a ViewLux.; format: functional, organism-based; conditions: Lister 427, CASY
metric: IC50

Per the records, this compound ( Cn1cncc1CN1CCC2(CC1)COC(Cc1ccccc1)C2 (configuration not stated) ) has IC50 equal to > 39.8 µM

Per the records, this compound ( O=C(c1ccc(Cl)cc1)c1ccc(OC(=O)N2CCOCC2)cc1 ) has IC50 equal to > 39.8 µM

Per the records, this compound ( Cc1cccc(NS(=O)(=O)c2cnc3sc(C)cn3c2=O)c1 ) has IC50 equal to > 39.8 µM

More entries:
Per the records, this compound ( O=C(c1cccc(Cl)c1Cl)N1CCn2c1nc(-c1ccncc1)cc2=O ) has IC50 equal to 31.6 µM

Data origin, for the record: ChEMBL document CHEMBL3430912
